system: human PCSK9 / human LDLR EGFa domain (Homo sapiens)
Sequence (Q8NBP7 153-692): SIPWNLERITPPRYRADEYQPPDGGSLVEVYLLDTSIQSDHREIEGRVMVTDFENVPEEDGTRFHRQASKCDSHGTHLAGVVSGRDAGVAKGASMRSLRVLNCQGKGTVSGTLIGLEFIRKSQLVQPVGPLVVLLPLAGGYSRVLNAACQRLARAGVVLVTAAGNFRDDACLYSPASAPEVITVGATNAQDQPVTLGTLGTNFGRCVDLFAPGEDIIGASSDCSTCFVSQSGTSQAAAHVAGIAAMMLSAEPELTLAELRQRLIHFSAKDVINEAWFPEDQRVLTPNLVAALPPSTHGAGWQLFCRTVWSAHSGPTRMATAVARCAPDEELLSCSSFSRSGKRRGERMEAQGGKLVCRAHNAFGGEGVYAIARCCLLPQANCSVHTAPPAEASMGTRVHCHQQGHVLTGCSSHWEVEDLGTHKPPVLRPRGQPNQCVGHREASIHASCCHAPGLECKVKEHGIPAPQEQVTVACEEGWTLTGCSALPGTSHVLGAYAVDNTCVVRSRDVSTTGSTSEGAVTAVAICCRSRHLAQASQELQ
protocol-details: TR-FRET assay of inhibition of the PCSK9-LDLR protein-protein interaction
setup-conditions: 20 nM human PCSK9, 20 nM human LDLR EGFa domain, 2 hours room temperature
pIC50: −log10 of the molar value. Numbered stars: 1 amine (or outer) side, 2 acyl side, 3 side chain; on linkers, the order of the positions; unused ones are H or OH. Bridge positions count the residues as written; N and C are the ends. Square brackets hold non-standard residues; d marks the D form. Peptide text beside a SMILES is read from it. Phe(4-CF3) = N[C@@H](Cc1ccc(C(F)(F)F)cc1)C(=O)O; Trp(5-F) = N[C@@H](Cc1c[nH]c2ccc(F)cc12)C(=O)O; 2Nal = N[C@@H](Cc1ccc2ccccc2c1)C(=O)O; mXylylene = c1cc(C[*:1])cc(C[*:2])c1; NBzl(4-I)Gly = O=C(O)CNCc1ccc(I)cc1; ΔPro = O=C(O)[C@@H]1C=CCN1; Pip = O=C(O)[C@@H]1CCCCN1; Mpa = O=C(O)CCS
measured-endpoint: pIC50

Here's what some known entries look like.
molecule	pIC50
C[C@@H]1NC(=O)[C@@H]2CCCCN2C(=O)[C@H](Cc2c[nH]c3ccc(F)cc23)NC(=O)[C@H](Cc2c[nH]c3ccc(F)cc23)NC(=O)[C@@H](C)NC(=O)[C@H](CCCCN)NC(=O)CCSCc2cccc(c2)CSC[C@@H](C(N)=O)NC(=O)[C@@H]2CCCN2C(=O)[C@H](Cc2ccc(O)cc2)NC1=O [Compound 035] ([Mpa]K[dA][Trp(5-F)][Trp(5-F)][Pip]AYPC-NH2; linker 1-10 via mXylylene)	6.00 to 7.00
C[C@@H]1NC(=O)[C@@H]2C=CCN2C(=O)[C@H](Cc2c[nH]c3ccc(F)cc23)NC(=O)[C@H](Cc2c[nH]c3ccc(F)cc23)NC(=O)[C@@H](C)NC(=O)[C@H](CCCCN)NC(=O)CCSCc2cccc(c2)CSC[C@@H](C(N)=O)NC(=O)[C@@H]2CCCN2C(=O)[C@H](Cc2ccc(O)cc2)NC1=O [Compound 038] ([Mpa]K[dA][Trp(5-F)][Trp(5-F)][ΔPro]AYPC-NH2; linker 1-10 via mXylylene)	6.00 to 7.00
C[C@@H]1NC(=O)[C@@H]2CCCN2C(=O)CN(Cc2ccc(I)cc2)C(=O)[C@H](Cc2c[nH]c3ccc(F)cc23)NC(=O)CNC(=O)[C@H](CCCCN)NC(=O)CCSCc2cccc(c2)CSC[C@@H](C(N)=O)NC(=O)[C@@H]2CCCN2C(=O)[C@H](Cc2ccc(O)cc2)NC1=O [Compound 010] ([Mpa]KG[Trp(5-F)][NBzl(4-I)Gly]PAYPC-NH2; linker 1-10 via mXylylene)	6.00 to 7.00
COc1ccc(C[C@@H]2NC(=O)[C@H](C)NC(=O)[C@@H]3CCCN3C(=O)[C@H](NC(=O)[C@H](Cc3c[nH]c4ccc(F)cc34)NC(C)=O)Cc3cn(c4ccc(F)cc34)Cc3cn(nn3)-c3cccc(c3)CSCCNC(=O)[C@]3(C)CCCN3C2=O)cc1	7.00 to 9.00
C[C@@H]1NC(=O)[C@@H]2CCCN2C(=O)[C@H](Cc2ccc3ccccc3c2)NC(=O)[C@H](Cc2c[nH]c3ccc(F)cc23)NC(=O)CNC(=O)[C@H](CCCCN)NC(=O)CCSCc2cccc(c2)CSC[C@@H](C(N)=O)NC(=O)[C@@H]2CCCN2C(=O)[C@H](Cc2ccc(O)cc2)NC1=O [Compound 011] ([Mpa]KG[Trp(5-F)][2Nal]PAYPC-NH2; linker 1-10 via mXylylene)	7.00 to 9.00

Would you kindly look at the next entry?
Name the reported pIC50 value associated with the molecule C[C@@H]1NC(=O)CCSCc2cccc(c2)CSC[C@@H](C(N)=O)NC(=O)[C@@H]2CCCN2C(=O)[C@H](Cc2ccc(C(F)(F)F)cc2)NC(=O)[C@H](C)NC(=O)[C@@H]2CCCN2C(=O)[C@H](Cc2c[nH]c3ccc(F)cc23)NC(=O)[C@H](Cc2c[nH]c3ccc(F)cc23)NC(=O)[C@@H](C)NC1=O [Compound 084] ([Mpa]A[dA][Trp(5-F)][Trp(5-F)]PA[Phe(4-CF3)]PC-NH2; linker 1-10 via mXylylene) 6.00 to 7.00

====

Recorded pIC50 for the following compounds
system: PCSK9 (Homo sapiens)
Construct: biotin (biotinylated)
protocol-details: PCSK9 Alexa FRET Standard assay (displacement of AlexaFluor647 tagged cyclic peptide Reagent A)
Type: binding
setup-conditions: 0.5 nM PCSK9, 20 nM AF cyclic peptide Reagent A
Description: A solution containing 1 nM biotinylated PCSK9+2.5 nM Lance Streptavidin Europium (Strep-Eu) was made in 50 mM HEPES pH 7.4, 0.15 M NaCl, 5 mM CaCl2), 0.01% BSA, and 0.01% Surfactant P20. […] The reaction was incubated at room temperature for at least two hours prior to fluorescence measurements using an Envision Multilabel Reader. IC50 values were determined by fitting data to a sigmoidal dose-response curve using nonlinear regression. […]
pIC50: −log10 of the molar value. Numbered stars: 1 amine (or outer) side, 2 acyl side, 3 side chain; on linkers, the order of the positions; unused ones are H or OH. Bridge positions count the residues as written; N and C are the ends. Square brackets hold non-standard residues; d marks the D form. Peptide text beside a SMILES is read from it. Trp(5-F) = N[C@@H](Cc1c[nH]c2ccc(F)cc12)C(=O)O; X1 = O=C(CCSCc1cccc(CSCCN[*:1])c1)[*:2]; 2Nal = N[C@@H](Cc1ccc2ccccc2c1)C(=O)O; mXylylene = c1cc(C[*:1])cc(C[*:2])c1; hhPhe = N[C@@H](CCCc1ccccc1)C(=O)O; Cha = N[C@@H](CC1CCCCC1)C(=O)O; Pip = O=C(O)[C@@H]1CCCCN1; Mpa = O=C(O)CCS

compound	measured-endpoint	reported-measurement
C[C@@H]1NC(=O)CCSCc2cccc(c2)CSCCNC(=O)[C@@H]2CCCN2C(=O)[C@H](Cc2ccc3ccccc3c2)NC(=O)[C@H](C)NC(=O)[C@@H]2CCCCN2C(=O)[C@H](Cc2c[nH]c3ccc(F)cc23)NC(=O)[C@H](Cc2c[nH]c3ccc(F)cc23)NC(=O)[C@@H](C)NC1=O [Compound 089] (cyclo([2Nal]P[X1]A[dA][Trp(5-F)][Trp(5-F)][Pip]A))	pIC50	7.00 to 9.00
C[C@@H]1NC(=O)CCSCc2cccc(c2)CSCCNC(=O)[C@@H]2CCCN2C(=O)[C@H](Cc2ccccc2)NC(=O)[C@H](C)NC(=O)[C@@H]2CCCN2C(=O)[C@H](Cc2c[nH]c3ccc(F)cc23)NC(=O)[C@H](Cc2c[nH]c3ccc(F)cc23)NC(=O)[C@@H](C)NC1=O [Compound 062] (cyclo(AFP[X1]A[dA][Trp(5-F)][Trp(5-F)]P))	pIC50	6.00 to 7.00
C[C@@H]1NC(=O)[C@@H]2CCCN2C(=O)[C@H](CC2CCCCC2)NC(=O)[C@H](Cc2c[nH]c3ccc(F)cc23)NC(=O)CNC(=O)[C@H](CCCCN)NC(=O)CCSCc2cccc(c2)CSC[C@@H](C(N)=O)NC(=O)[C@@H]2CCCN2C(=O)[C@H](Cc2ccc(O)cc2)NC1=O [Compound 025] ([Mpa]KG[Trp(5-F)][Cha]PAYPC-NH2; linker 1-10 via mXylylene)	pIC50	7.00 to 9.00

So what does the record say about pIC50 for COc1ccc(C[C@@H]2NC(=O)[C@H](C)NC(=O)[C@@H]3CCCN3C(=O)[C@H](NC(=O)[C@H](Cc3c[nH]c4ccc(F)cc34)NC(=O)[C@@H](C)NC(C)=O)Cc3cn(c4ccc(F)cc34)Cc3cn(nn3)-c3cccc(c3)CSCCNC(=O)[C@]3(C)CCCN3C2=O)cc1 [Compound 102] ? 7.00 to 9.00

Form field: reported pIC50 of COc1ccc(C[C@@H]2NC(=O)[C@H](C)NC(=O)CN3CCCCCCCCCN(CC(=O)N[C@@H](Cc4c[nH]c5ccc(F)cc45)C3=O)C(=O)CNC(=O)CCCCCNC(=O)c3ccc(cc3)C[C@@H](C(N)=O)NC(=O)[C@]3(C)CCCN3C2=O)cc1 [Compound 123] 7.00 to 9.00

// lookup pIC50 for C[C@@H]1NC(=O)[C@@H]2CCCN2C(=O)[C@H](CCCc2ccccc2)NC(=O)[C@H](Cc2c[nH]c3ccc(F)cc23)NC(=O)CNC(=O)[C@H](CCCCN)NC(=O)CCSCc2cccc(c2)CSC[C@@H](C(N)=O)NC(=O)[C@@H]2CCCN2C(=O)[C@H](Cc2ccc(O)cc2)NC1=O [Compound 013] ([Mpa]KG[Trp(5-F)][hhPhe]PAYPC-NH2; linker 1-10 via mXylylene) 7.00 to 9.00
